Some compounds, each annotated with its measured inhibition at 10 µM.
Target Or Test System: hPXR (Homo sapiens (Human), UniProt O75469)
Sequence (O75469 whole entry): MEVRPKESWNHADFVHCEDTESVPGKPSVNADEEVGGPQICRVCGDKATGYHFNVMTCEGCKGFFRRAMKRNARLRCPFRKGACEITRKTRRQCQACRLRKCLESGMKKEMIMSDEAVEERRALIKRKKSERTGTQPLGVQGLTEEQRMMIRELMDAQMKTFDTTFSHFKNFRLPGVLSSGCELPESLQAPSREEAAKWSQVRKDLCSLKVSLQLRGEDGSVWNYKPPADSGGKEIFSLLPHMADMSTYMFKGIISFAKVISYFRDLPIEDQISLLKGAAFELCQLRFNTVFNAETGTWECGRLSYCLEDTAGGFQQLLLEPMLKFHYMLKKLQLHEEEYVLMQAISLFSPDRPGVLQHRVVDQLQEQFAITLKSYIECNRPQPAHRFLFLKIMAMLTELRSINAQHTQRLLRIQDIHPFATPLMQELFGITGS
Measurement Notes: hPXR binding assay
Assay Setup: read-out: Binding (% inhibition at 10 μM)

Take a look at these entries with their results.
Compound	inhibition at 10 µM
CCCCOc1ccc(C(C)(C)C)cc1NC(=O)c1nnn(-c2cccnc2)c1C [H12]	75%
COc1ccc(OC)c(-n2nnc(C(=O)Nc3cc(C(C)(C)C)ccc3OCCOCCOCCOCCO)c2C)c1 [B10]	62%
COc1ccc(OC)c(-n2nnc(C(=O)Nc3cc(C)ccc3OC)c2C)c1 [A25]	73%
CCCC(CC)Oc1ccc(C(C)(C)C)cc1NC(=O)c1nnn(-c2cc(OC)ccc2OC)c1C (centres unmarked) [B34]	92%
CCCC(CCC)Oc1ccc(C(C)(C)C)cc1NC(=O)c1nnn(-c2cc(OC)ccc2OC)c1C [B33]	90%
COc1ccc(Cl)cc1-n1nnc(C(=O)Nc2cc(O)cc(C(C)(C)C)c2)c1C [F4]	84%
CCC[C@@H](CC)Oc1ccc(C(C)(C)C)cc1NC(=O)c1nnn(-c2cc(OC)ccc2OC)c1C [M2]	88%
CCCCCCCCOc1cc(NC(=O)c2nnn(-c3cc(OC)ccc3OC)c2C)cc(C(C)(C)C)c1 [D20]	42%

# get_value(readout='inhibition at 10 µM', item= CCC(C)COc1ccc(C(C)(C)C)cc1NC(=O)c1nnn(-c2cc(OC)ccc2OC)c1C (centres unmarked) [B30] ) 86%

Can you check COc1ccc(OC)c(-n2nnc(C(=O)Nc3cc(C(C)(C)C)ccc3OCC(C)(C)C)c2C)c1 [B29] next? 85%

Can you check COc1ccc(OC)c(-n2nnc(C(=O)Nc3cccc(C)c3)c2C)c1 [A3] next? 52%

Can you check CCCCNc1cc(NC(=O)c2nnn(-c3cc(C)ccc3OC)c2C)cc(C(C)(C)C)c1 [G6] next? 87%

Can you check C#CCCCOc1cc(NC(=O)c2nnn(-c3cc(OC)ccc3OC)c2C)cc(C(C)(C)C)c1 [D19] next? 25%

Can you check COc1ccc(OC)c(-n2nnc(C(=O)Nc3cc(NCC(=O)O)cc(C(C)(C)C)c3)c2C)c1 [D9] next? 61%
